- systemName: hAT1R (Homo sapiens)
- Sequence (P30556 whole entry): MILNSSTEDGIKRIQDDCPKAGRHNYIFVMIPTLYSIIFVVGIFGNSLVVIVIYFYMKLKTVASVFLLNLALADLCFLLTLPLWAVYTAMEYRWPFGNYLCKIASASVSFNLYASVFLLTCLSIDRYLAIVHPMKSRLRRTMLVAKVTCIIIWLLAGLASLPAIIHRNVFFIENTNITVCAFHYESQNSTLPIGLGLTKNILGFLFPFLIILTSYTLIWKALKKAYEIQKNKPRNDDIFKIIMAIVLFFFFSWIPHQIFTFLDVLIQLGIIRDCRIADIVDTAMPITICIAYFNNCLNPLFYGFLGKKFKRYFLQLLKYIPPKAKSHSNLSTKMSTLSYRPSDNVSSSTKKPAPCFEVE
- protocolDetails: BRET β-arrestin2 biosensor assay, higher receptor expression (hAT1R 5 ng/well), HEK293 cells
- Assay type: cell-based
Recorded BRET β-Arrestin2 High AT1R Expression Ymax (%) for the following compounds
Numbers only here, please. The scale is %.

Fill in the blank: the reported BRET β-Arrestin2 High AT1R Expression Ymax (%) of `CCOc1nc2cccc(C(=O)O)c2n1Cc1ccc(-c2cc(-c3c[nH]c4ccccc34)ccc2-c2noc(=O)[nH]2)cc1` is ____.
80.9

I have this compound here, `CCc1nc2c(C)cc(C)nc2n1Cc1ccc(-c2cc(Oc3cc(F)ccn3)ccc2-c2nn[nH]n2)cc1` , and I need its recorded BRET β-Arrestin2 High AT1R Expression Ymax (%).
75.6

Fill in the blank: the reported BRET β-Arrestin2 High AT1R Expression Ymax (%) of `CCc1nc2c(C)cc(C)nc2n1Cc1ccc(-c2cc(-c3cc(C)ccn3)ccc2-c2nn[nH]n2)cc1` is ____.
92.5

I'd like to know its BRET β-Arrestin2 High AT1R Expression Ymax (%). The compound in question is `CCc1nc2c(C)cc(C)nc2n1Cc1ccc(-c2cc(N3CCCC(C)(C)C3)ccc2-c2nn[nH]n2)cc1`
86.6

Quick one: BRET β-Arrestin2 High AT1R Expression Ymax (%) of `CCCCC1=NC2(CCCC2)C(=O)N1Cc1ccc(-c2cc(-c3cccc(C)n3)ccc2-c2nn[nH]n2)cc1` ?
73.2

GET /values?readout=BRET β-Arrestin2 High AT1R Expression Ymax (%)&item= CCCCC1=NC2(CCOC2)C(=O)N1Cc1ccc(-c2cc(-c3ccccc3)ccc2-c2nnn[nH]2)cc1 (single isomer, unassigned) [Example 147]
66.6

If you can, please state the reported BRET β-Arrestin2 High AT1R Expression Ymax (%) value of `CCc1nc2c(C)cc(C)nc2n1Cc1ccc(-c2cc(N3CC(C)(C)c4ccccc43)ccc2-c2nn[nH]n2)cc1` .
88.9

Endpoint output: BRET β-Arrestin2 High AT1R Expression Ymax (%) of `CCc1nc2c(C)cc(C)nc2n1Cc1ccc(-c2cc(-c3ccc4ncccc4c3)ccc2-c2nn[nH]n2)cc1` . Value?
53.8

Recorded BRET β-Arrestin2 High AT1R Expression Ymax (%) for `CCOc1nc2cccc(C(=O)O)c2n1Cc1ccc(-c2cc(-c3ccccc3)ccc2-c2noc(=O)[nH]2)cc1` , please?
92.0

What does the record list as BRET β-Arrestin2 High AT1R Expression Ymax (%) for `CCCCC(=O)N(Cc1ccc(-c2cc(-c3cccc(C)n3)ccc2-c2nn[nH]n2)cc1)C1(C(=O)O)CCCCC1` ?
24.7

Which BRET β-Arrestin2 High AT1R Expression Ymax (%) value belongs to `CCCCC(=O)N(Cc1ccc(-c2cc(N3CCC(C)CC3)ccc2-c2nn[nH]n2)cc1)[C@H](C(=O)O)C(C)C` ?
63.1

Give its BRET β-Arrestin2 High AT1R Expression Ymax (%) value. Item: `CCc1nc2c(C)cc(C)nc2n1Cc1ccc(-c2cc(Oc3cccnc3)ccc2-c2nnn[nH]2)cc1`
87.3

Dear colleague, I am looking for the recorded BRET β-Arrestin2 High AT1R Expression Ymax (%) of the following compound: `CCCCc1ncc(C(=O)NCCOC)n1Cc1ccc(-c2cc(-c3ccccc3)ccc2-c2nn[nH]n2)cc1`
94.4

What measured BRET β-Arrestin2 High AT1R Expression Ymax (%) goes with `CCCCC1=NC2(CCCC2)C(=O)N1Cc1ccc(-c2cc(-c3cc(C)ccn3)ccc2-c2nn[nH]n2)cc1` ?
95.0

Could you share which BRET β-Arrestin2 High AT1R Expression Ymax (%) value was measured for `CCCC(=O)N(Cc1ccc(-c2cc(-c3ccccc3)ccc2-c2nn[nH]n2)nc1)[C@H](C(=O)O)C(C)C` ?
88.4

What value of BRET β-Arrestin2 High AT1R Expression Ymax (%) has been reported for the following compound? `CCCCC(=O)N(Cc1ccc(-c2cc(-c3cccnc3OC)ccc2-c2nn[nH]n2)cc1)C1(C(=O)O)CCCCC1`
31.2

So what's the measured BRET β-Arrestin2 High AT1R Expression Ymax (%) for this one? `CCc1nc2c(C)cc(C)nc2n1Cc1ccc(-c2cc(-c3cccc(C(=O)N(C)C)c3)ccc2-c2nn[nH]n2)cc1`
66.3
